Recorded IC50, one value per entry.
# testedTarget: LDHB (Homo sapiens (Human))
# Sequence (P07195 whole entry): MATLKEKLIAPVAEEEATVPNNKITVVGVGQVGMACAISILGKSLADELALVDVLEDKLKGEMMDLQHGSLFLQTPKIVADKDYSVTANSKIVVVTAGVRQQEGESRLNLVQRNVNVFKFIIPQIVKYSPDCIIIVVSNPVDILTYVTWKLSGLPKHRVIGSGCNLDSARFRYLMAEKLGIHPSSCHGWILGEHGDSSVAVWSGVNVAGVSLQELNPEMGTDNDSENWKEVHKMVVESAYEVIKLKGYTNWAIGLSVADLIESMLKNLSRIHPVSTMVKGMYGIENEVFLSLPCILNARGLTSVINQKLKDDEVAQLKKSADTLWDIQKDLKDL

Known results for compounds:
# input Checklist item: IC50 tested on LDHB (Homo sapiens (Human)), entry CC(=O)OC1=C(Sc2ccc(F)cc2Cl)C(=O)NC(c2ccsc2)(c2cccc(OCC3CCCC3)n2)C1 (stereo not drawn) , value?
# output > 100 µM

# input Give the reported IC50 for O=C1CC(c2ccsc2)(c2cccc(OCC3CCCC3)n2)NC(=O)C1Sc1ccc(F)cc1Cl (stereo not drawn) (system: LDHB (Homo sapiens (Human))).
# output > 100 µM

Here is another compound to look at.
# input Request: IC50, test system LDHB (Homo sapiens (Human)), entry COCCOC(=O)OC1=C(Sc2ccc(Cl)cc2Cl)C(=O)NC(c2ccsc2)(c2cccc(OCC3CCCC3)n2)C1 (stereo not drawn)
# output > 100 µM

###

# testedTarget: UniProtKB P00338
resultType: pKd
FYI, pKd means -log10 of a concentration in mol per litre.

# input # value lookup — system UniProtKB P00338, readout pKd, item O=C1CC(c2ccsc2)(c2cccc(OCC3CCCC3)n2)NC(=O)C1Sc1ccc(F)cc1Cl (stereo not shown)
# output 6.43

###

# testedTarget: LDHA (Homo sapiens (Human))
# testProtocol: Coupled diaphorase assay, LDHA
# Type: biochemical
# recordedConditions: lactate to pyruvate direction, 4-7 nM LDHA
resultType: IC50

# input IC50 for O=C1CC(c2ccc(N3CCOCC3)cc2)(c2ccsc2)NC(=O)C1Sc1ccc(Cl)cc1Cl (stereo not drawn) [Example 29] ?
# output 50 to 100 µM

# input Reported IC50 for CC(C)COC(=O)OC1=C(Sc2cc(Cl)ccc2Cl)C(=O)NC(c2ccc(N3CCOCC3)cc2)(c2ccsc2)C1 (stereo not drawn) [Example 26] : what is it?
# output 50 to 100 µM

# input # query: IC50 of entry COCCOC(=O)OC1=C(Sc2cc(Cl)ccc2Cl)C(=O)NC(c2ccc(N3CCOCC3)cc2)(c2ccsc2)C1 (single isomer, unassigned) [Example 17 Enantiomer 1]
# output 10 to 50 µM

# input Look at this molecule and give its reported IC50. COCCOC(=O)OC1=C(Sc2cc(Cl)ccc2Cl)C(=O)NC(c2ccsc2)(c2cccc(OCC3CCCC3)n2)C1 (stereo not drawn) [Example 34]
# output > 100 µM

# input Dear colleague, I am looking for the recorded IC50 of the following molecule: CCCCCCCCCCOC(=O)OC1=C(Sc2cc(Cl)ccc2Cl)C(=O)NC(c2ccsc2)(c2cccc(OCC3CCCC3)n2)C1 (stereo not drawn) [Example 16]
# output > 100 µM

# input Consider the molecule shown here: CCOC(=O)OC1=C(Sc2cccc(Cl)c2Cl)C(=O)NC(c2ccc(N3CCOCC3)cc2)(c2ccsc2)C1 (stereo not drawn) [Example 15] What is its recorded IC50?
# output 50 to 100 µM

More entries:
# input Name the recorded IC50 for COCCOC(=O)OC1=C(Sc2ccc(Cl)cc2Cl)C(=O)NC(c2ccsc2)(c2cccc(OCC3CCCC3)n2)C1 (stereo not drawn) [Example 22] .
# output > 100 µM

# input molecule: O=C1CC(c2ccsc2)(c2cccc(OCC3CCCC3)n2)NC(=O)C1Sc1ccc(Cl)cc1Cl (stereo not drawn) [Example 1] ; wanted: its IC50
# output 10 to 50 µM

# input What measured IC50 goes with COC(=O)OC1=C(Sc2cccc(Cl)c2Cl)C(=O)NC(c2ccsc2)(c2cccc(OCC3CCCC3)n2)C1 (stereo not drawn) [Example 12] ?
# output > 100 µM

# input Consider the molecule O=C1CC(c2ccc(N3CCOCC3)cc2)(c2ccsc2)NC(=O)C1Sc1cc(Cl)ccc1Cl (single isomer, unassigned) [Example 10 Enantiomer 1] and give its measured IC50.
# output 0.5 to 10 µM

# input Consider the molecule shown here: O=C1CC(c2ccc(N3CCOCC3)cc2)(c2ccsc2)NC(=O)C1Sc1cc(Cl)ccc1Cl (single isomer, unassigned) [Example 10 Enantiomer 2] What is its recorded IC50?
# output 10 to 50 µM

# input Requested read-out: IC50. Entry: COCCOC(=O)OC1=C(Sc2ccc(F)cc2Cl)C(=O)NC(c2ccc(N3CCOCC3)cc2)(c2ccsc2)C1 (stereo not drawn) [Example 33]
# output 0.5 to 10 µM

# input Given COCCOC(=O)OC1=C(Sc2cc(Cl)ccc2Cl)C(=O)NC(c2ccc(N3CCOCC3)cc2)(c2ccsc2)C1 (single isomer, unassigned) [Example 17 Enantiomer 2] , state its recorded IC50.
# output 0.5 to 10 µM

# input State the recorded IC50 for this entry: O=C1CC(c2cnc(N3CCOCC3)nc2)(c2ccsc2)OC(=O)C1Sc1ccccc1Cl (stereo not drawn) [Example 23]
# output 0.5 to 10 µM

# input Name the recorded IC50 for O=C1CC(c2ccsc2)(c2cccc(OCC3CCCC3)n2)NC(=O)C1Sc1cccc(Cl)c1Cl (stereo not drawn) [Example 7] .
# output 10 to 50 µM

# input Form field: reported IC50 of COCCOC(=O)OC1=C(Sc2ccccc2Cl)C(=O)OC(c2cnc(N3CCOCC3)nc2)(c2ccsc2)C1 (stereo not drawn) [Example 35]
# output 10 to 50 µM

# input Which IC50 is listed for CC(C)(C)C(=O)OC1=C(Sc2cc(Cl)ccc2Cl)C(=O)NC(c2ccc(N3CCOCC3)cc2)(c2ccsc2)C1 (stereo not drawn) [Example 28] ?
# output 10 to 50 µM

# input Consider the molecule shown here: O=C1CC(c2ccsc2)(c2ccccn2)OC(=O)C1Sc1ccccc1Cl (stereo not drawn) [Example 20] What is its recorded IC50?
# output 0.5 to 10 µM
